measured-on: cynomolgus PDL1, recombinant (Sino Biological) / PDL1-Fc chimeric protein (cynomolgus (Macaca fascicularis), UniProt G7PSE7 19-238)
Sequence (G7PSE7 entry or part of it mutant limits assumed): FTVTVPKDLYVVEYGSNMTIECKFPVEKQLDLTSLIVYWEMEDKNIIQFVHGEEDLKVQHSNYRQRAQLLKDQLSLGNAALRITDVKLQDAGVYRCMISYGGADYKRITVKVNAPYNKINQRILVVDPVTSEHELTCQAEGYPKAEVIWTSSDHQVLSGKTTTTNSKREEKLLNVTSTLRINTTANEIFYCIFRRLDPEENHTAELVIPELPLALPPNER
test-description: SPR Biacore T200; cynomolgus PDL1 (Sino Biological) captured; scFv as analyte
experimental-readout: KD, cyno/KD, human

1. PRO1183 (33-03-G02-sc03 scFv) (scFv, also called 33_03_G02 sc03 Full) scFv: DFQLTQSPSSLSASVGDRVTITCQASQSINDYLAWYQQKPGKSPKLLIYKASTLASGVPSRFSGSGSGTDFTLTISSLQPEDFATYYCQQGYIITDIDNVFGTGTKVTVLGGGGGSGGGGSGGGGSGGGGSQSQLQESGPGLVKPSETLSLTCKASGFSFSSGYDMCWVRQPPGKGLEWIACVVAGSVDITYYASWAKGRVTISKDSSKNQVSLKLSSVTAADTAVYFCARKDAYSDAFNLWGQGTLVTVSS	< 5.58

Every entry's value here was drawn from patent US20200283528A1.
